# assay.method.text: Pharmacokinetics study in rats (plasma and brain)
# Format: in vivo, Sprague−Dawley rats
# stated.conditions: Sprague-Dawley, rat, brain, ip, 10 mg/kg, 10 mg/kg IP, brain, read-out: half-life (h) brain (converted)
# Method: Given their adequate in vitro stability profiles, we next evaluated the in vivo pharmacokinetic profiles of 14, 15, 17, and 18 in rats. Sprague−Dawley rats were dosed with 5 mg/kg (14, 15, 17) or 10 mg/kg (18), i.p., and plasma and brain levels of each drug were measured 0−6 h postdose. All animal experiments were performed following the protocols evaluated and approved by the Animal Care and Use Committee at Johns Hopkins University (Ethics Approval Number: RA24M403). […]
measured.endpoint: half-life (h)
The figure you give is taken to be in h; do not add the unit.

Ask: // half-life lookup, key: `Cc1cccc(-n2cc(CN3CCN(c4cccc5ccccc45)CC3)nn2)c1`
Result: 2.46

----------
# assay.method.text: Pharmacokinetics study in rats (plasma and brain)
# Format: in vivo, Sprague−Dawley rats
# stated.conditions: Sprague-Dawley; rat, 10 mg/kg IP, plasma; read-out: Tmax (h) plasma
# Procedure: Given their adequate in vitro stability profiles, we next evaluated the in vivo pharmacokinetic profiles of 14, 15, 17, and 18 in rats. Sprague−Dawley rats were dosed with 5 mg/kg (14, 15, 17) or 10 mg/kg (18), i.p., and plasma and brain levels of each drug were measured 0−6 h postdose. All animal experiments were performed following the protocols evaluated and approved by the Animal Care and Use Committee at Johns Hopkins University (Ethics Approval Number: RA24M403). […]
measured.endpoint: Tmax (h)
Unit h implied. Number only.

Ask: What value of measured Tmax is listed for Cc1cccc(-n2cc(CN3CCN(c4cccc5ccccc45)CC3)nn2)c1 [Compound 18] ?
Result: 0.5

----------
# assay.method.text: Phase I metabolic stability in rat liver microsomes (with NADPH)
# Format: in vitro ADME
# stated.conditions: pH 7.4, presence of NADPH, mean ± SD, n = 3
# Description: We evaluated the Phase I metabolic stability of compounds 2−7 and 14−19 using rat and human liver microsomes, as previously described.[45] Phase I metabolic stability assays were conducted using rat and human liver microsomes as previously described[45],[70] with minor modifications. […] Negative controls without cofactors were assessed to determine the non-CYP-mediated metabolism. Compound disappearance was monitored over time using a liquid chromatography and tandem mass spectrometry (LC/MS) method. […]
half-life values for the compounds below.
Give just the numeric value; min need not be written.

CCc1cccc(-n2cc(CN3CCN(c4ccccn4)CC3)nn2)c1 [Compound 19]
28
Cc1cccc(NC(=O)CN2CCC(c3ccccc3)CC2)c1 [Compound 5]
1.99
Cc1cccc(-n2cc(CN3CCN(c4ccccn4)CC3)nn2)c1 [Compound 15]
32.9
Cc1cccc(NC(=O)CN2CCN(c3ccc(Cl)cn3)CC2)c1 [Compound 7]
9.51
Cc1cccc(-n2cc(CN3CCN(c4ccc(Cl)cn4)CC3)nn2)c1 [Compound 17]
64.8

Ask: Param item = Cc1cccc(-n2cc(CN3CCN(c4ncccn4)CC3)nn2)c1 [Compound 16] ; retrieve measured half-life.
Result: 68.1

Ask: Entry Cc1cccc(NC(=O)CN2CCN(c3cccc4ccccc34)CC2)c1 [Compound 6] : reported half-life = ?
Result: 10.5

----------
# assay.method.text: Pharmacokinetics study in rats (plasma and brain)
# Format: in vivo, Sprague−Dawley rats
# stated.conditions: Sprague-Dawley; rat, 10 mg/kg IP, brain; read-out: Tmax (h) brain
measured.endpoint: Tmax (h)
Write down the numeric answer in h and omit the unit.

Ask: Given Cc1cccc(-n2cc(CN3CCN(c4cccc5ccccc45)CC3)nn2)c1 [Compound 18] , state its recorded Tmax.
Result: 0.5
